Literature-derived pIC50 for UniProt:P08253 follows.
Here pIC50 is given on a logarithmic scale as minus log10 of the concentration in mol/L.

Quick one: pIC50 of "COc1cc(NC(=S)NNC(=O)c2cc(Br)c(Br)n2C)cc(OC)c1OC" ?
4.72

Quick one: pIC50 of COc1cccc(C2=NN(c3ccc(S(N)(=O)=O)cc3)C(c3ccccc3O)C2)c1 (stereo not given) ?
5.74

Quick one: pIC50 of COc1ccc(C2=NN(c3ccc(S(N)(=O)=O)cc3)C(c3ccc(Cl)cc3O)C2)cc1 (stereo not given) ?
5.34

Quick one: pIC50 of NS(=O)(=O)c1ccc(N2N=C(c3ccccc3Cl)CC2c2ccccc2O)cc1 (stereo not given) ?
4.94

Quick one: pIC50 of NS(=O)(=O)c1ccc(N2N=C(c3ccc(Cl)c(Cl)c3)CC2c2cc(Br)ccc2O)cc1 (stereo not given) ?
4.79

Quick one: pIC50 of "CC(C)C[C@H](NC(=O)[C@H](Cc1ccccc1)NC(=O)[C@@H](O)CN)C(=O)O" ?
3.69

Quick one: pIC50 of "CCc1ccc(C#Cc2ccc(S(=O)(=O)N[C@H](C(=O)O)C(C)C)s2)cc1" ?
8.32

Quick one: pIC50 of O=C(c1ccccc1)c1ccc(S(=O)(=O)CC(CCCc2ccccc2)C(=O)NO)cc1 (stereo not given) ?
8.40

Quick one: pIC50 of COc1cccc(C2=NN(c3ccc(S(N)(=O)=O)cc3)C(c3cc(Br)ccc3O)C2)c1 (stereo not given) ?
5.49

====

Literature-derived pIC50 for 72 kDa type IV collagenase (Homo sapiens) follows.
Here pIC50 is given on a logarithmic scale as minus log10 of the concentration in mol/L.

Param readout = pIC50; param system = 72 kDa type IV collagenase (Homo sapiens); param query = "Cn1c(C(=O)NNC(=O)Nc2ccco2)cc(Br)c1Br" ; response: value
Sequence (P08253 whole entry): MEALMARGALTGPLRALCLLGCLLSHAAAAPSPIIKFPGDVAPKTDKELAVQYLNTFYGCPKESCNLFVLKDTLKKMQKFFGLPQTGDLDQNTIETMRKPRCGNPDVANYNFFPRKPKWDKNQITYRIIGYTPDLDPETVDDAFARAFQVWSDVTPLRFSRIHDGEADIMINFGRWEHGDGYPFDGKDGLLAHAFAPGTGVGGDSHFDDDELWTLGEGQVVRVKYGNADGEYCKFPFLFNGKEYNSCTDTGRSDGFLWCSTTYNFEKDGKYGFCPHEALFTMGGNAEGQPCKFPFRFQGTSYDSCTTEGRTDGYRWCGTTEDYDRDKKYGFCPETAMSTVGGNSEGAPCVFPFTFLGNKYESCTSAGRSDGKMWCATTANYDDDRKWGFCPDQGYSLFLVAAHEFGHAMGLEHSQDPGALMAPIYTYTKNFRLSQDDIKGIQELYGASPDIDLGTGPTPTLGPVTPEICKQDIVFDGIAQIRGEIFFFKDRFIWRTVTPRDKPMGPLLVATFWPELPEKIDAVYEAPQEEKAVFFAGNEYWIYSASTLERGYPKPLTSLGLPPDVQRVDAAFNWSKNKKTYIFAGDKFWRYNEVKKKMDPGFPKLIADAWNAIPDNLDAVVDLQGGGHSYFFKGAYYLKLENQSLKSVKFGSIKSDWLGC
4.22

Param readout = pIC50; param system = 72 kDa type IV collagenase (Homo sapiens); param query = CCOc1ccc(C2=NN(c3ccc(S(N)(=O)=O)cc3)C(c3ccc(Cl)cc3O)C2)cc1 (stereo not given) ; response: value
5.42

Param readout = pIC50; param system = 72 kDa type IV collagenase (Homo sapiens); param query = NS(=O)(=O)c1ccc(N2N=C(c3ccc(F)cc3)CC2c2ccccc2O)cc1 (stereo not given) ; response: value
4.61

Param readout = pIC50; param system = 72 kDa type IV collagenase (Homo sapiens); param query = COc1cccc(C2=NN(c3ccc(S(N)(=O)=O)cc3)C(c3cc(Cl)ccc3O)C2)c1 (stereo not given) ; response: value
5.67

Param readout = pIC50; param system = 72 kDa type IV collagenase (Homo sapiens); param query = "COC[C@@H](Cn1ccnc1[N+](=O)[O-])OC(=O)c1ccc(NC=C2C(=O)C=CC2=O)cc1" ; response: value
4.62

Param readout = pIC50; param system = 72 kDa type IV collagenase (Homo sapiens); param query = COc1cc(/C=C/C(=O)C(C(=O)/C=C/c2ccc(O)c(CO)c2)C(=O)Nc2ccccc2)ccc1O (stereo not given) ; response: value
4.07

Param readout = pIC50; param system = 72 kDa type IV collagenase (Homo sapiens); param query = "O=C(CCS(=O)(=O)c1ccccc1)NO" ; response: value
5.72

Param readout = pIC50; param system = 72 kDa type IV collagenase (Homo sapiens); param query = "COC(=O)[C@H](CC(C)C)NC(=O)[C@@H](O)CN" ; response: value
3.17

Param readout = pIC50; param system = 72 kDa type IV collagenase (Homo sapiens); param query = NS(=O)(=O)c1ccc(N2N=C(c3ccccc3)CC2c2ccc(Cl)cc2O)cc1 (stereo not given) ; response: value
4.87

Param readout = pIC50; param system = 72 kDa type IV collagenase (Homo sapiens); param query = NS(=O)(=O)c1ccc(N2N=C(c3ccccc3)CC2c2cc(Br)ccc2O)cc1 (stereo not given) ; response: value
4.89

Param readout = pIC50; param system = 72 kDa type IV collagenase (Homo sapiens); param query = "O=C(NNC(=S)Nc1ccc(Cl)cc1)c1cc(Br)c(Br)[nH]1" ; response: value
5.74

Param readout = pIC50; param system = 72 kDa type IV collagenase (Homo sapiens); param query = NS(=O)(=O)c1ccc(N2N=C(c3ccc(Cl)cc3)CC2c2cc(Cl)ccc2O)cc1 (stereo not given) ; response: value
4.95

Param readout = pIC50; param system = 72 kDa type IV collagenase (Homo sapiens); param query = "CC(C)C[C@H](NC(=O)[C@@H](O)CN)C(=O)N[C@@H](Cc1ccccc1)C(=O)O" ; response: value
3.94

Param readout = pIC50; param system = 72 kDa type IV collagenase (Homo sapiens); param query = CC(C)C(NS(=O)(=O)c1ccc2c(c1)oc1ccc(N3CCOC3=O)cc12)C(=O)O (stereo not given) ; response: value
7.18

Param readout = pIC50; param system = 72 kDa type IV collagenase (Homo sapiens); param query = "COc1ccc(-c2cc(/C=C3\SC(=S)N(CC(=O)O)C3=O)no2)cc1" ; response: value
5.18

Param readout = pIC50; param system = 72 kDa type IV collagenase (Homo sapiens); param query = "NC[C@H](O)C(=O)N[C@@H](Cc1ccccc1)C(=O)O" ; response: value
3.15

Param readout = pIC50; param system = 72 kDa type IV collagenase (Homo sapiens); param query = NS(=O)(=O)c1ccc(N2N=C(c3ccc(Cl)c(Cl)c3)CC2c2ccccc2O)cc1 (stereo not given) ; response: value
4.89

====

Literature-derived pIC50 for 72 kDa type IV collagenase (Homo sapiens) follows.
Here pIC50 is given on a logarithmic scale as minus log10 of the concentration in mol/L.

Param readout = pIC50; param system = 72 kDa type IV collagenase (Homo sapiens); param query = "CC#CCOc1ccc(S(=O)(=O)N2CCSC(C)(C)[C@@H]2C(=O)NO)cc1" ; response: value
8.33

Param readout = pIC50; param system = 72 kDa type IV collagenase (Homo sapiens); param query = "Cn1c(C(=O)NNC(=S)Nc2ccccc2F)cc(Br)c1Br" ; response: value
5.10

Param readout = pIC50; param system = 72 kDa type IV collagenase (Homo sapiens); param query = COc1ccc(C2=NN(c3ccc(S(N)(=O)=O)cc3)C(c3ccccc3O)C2)cc1 (stereo not given) ; response: value
5.74

Param readout = pIC50; param system = 72 kDa type IV collagenase (Homo sapiens); param query = "CC(C)C[C@H](NC(=O)[C@H](Cc1ccccc1)NC(=O)[C@@H](O)CN)C(=O)OCc1ccccc1" ; response: value
3.48

Param readout = pIC50; param system = 72 kDa type IV collagenase (Homo sapiens); param query = "CC(C)C[C@H](NC(=O)[C@@H](O)CN)C(=O)OCc1ccccc1" ; response: value
3.00
